- EXPERIMENTAL_PROTOCOL: Single-dose IV PK at 1 mg/kg
- Type: in vivo, FVB mice
- PROTOCOL_CONDITIONS: female, FVB, mouse, plasma, iv, 1 mg/kg
QUANTITY_MEASURED: clearance (mL/min/kg)
Kindly provide the numeric value in mL/min/kg only, without the unit symbol.

Suppose we examine the compound C(=N\Nc1ccc(-c2cnco2)cc1)/c1ccncc1 [Compd B, reference compound] ; what clearance value has been reported?
76

###

- EXPERIMENTAL_PROTOCOL: Single-dose oral gavage PK at 10 mg/kg
- Format: in vivo, FVB mice
- PROTOCOL_CONDITIONS: PO 10 mg/kg, plasma, mean ± SD, n = 2
QUANTITY_MEASURED: Cmax (nM)
Unit nM implied. Number only.

May I ask what Cmax has been recorded for Cc1ccc(Nc2nc(-c3ccc(-c4ccccc4)cc3)cs2)nc1 [IND24] ?
1660

###

- EXPERIMENTAL_PROTOCOL: Single-dose oral gavage PK at 10 mg/kg
- Format: in vivo, FVB mice
- PROTOCOL_CONDITIONS: female, FVB, mouse, plasma, po, 10 mg/kg
QUANTITY_MEASURED: Cmax (µM)
Use µM as the unit, but write only the number.

Given C(=N\Nc1ccc(-c2cnco2)cc1)/c1ccncc1 [Compd B, reference compound] , state its recorded Cmax.
0.83

###

- System: rat liver microsomes
- EXPERIMENTAL_PROTOCOL: Hepatic microsomal stability, rat
- Format: in vitro ADME
- PROTOCOL_CONDITIONS: 1 μM
Response field label: string, one of 1 (% remaining after a 60-min incubation strictly below 50%) or -1.

SMI	ASSIGNED_CATEGORY
Cc1ccc(Nc2nc(-c3ccc(-c4ccccc4)cc3)cs2)nc1	-1
COc1ccc(-c2csc(Nc3cc4ccccc4cn3)n2)cc1OC	-1
Cc1cccc(Nc2nc(-c3cc4ccccc4o3)cs2)n1	-1
COc1ccc(Nc2nc(-c3ccc(OC)c(OC)c3)cs2)nc1	1
Cc1ccnc(Nc2nc(-c3ccncc3)cs2)c1	1
Cc1ccc(Nc2nc(-c3cc(-c4ccccc4)no3)cs2)nc1	-1

Proceed to the following item.
Consider c1ccc2cc(Nc3nc(-c4ccncc4)cs3)ncc2c1 . Does its % remaining after a 60-min incubation lie strictly below 50%?
1

###

- EXPERIMENTAL_PROTOCOL: Hepatic microsomal stability, human
- Type: in vitro ADME
- PROTOCOL_CONDITIONS: human, human liver microsomes, pH 7.4
QUANTITY_MEASURED: remaining at 1 h, 1 μM

Form field: reported remaining at 1 h, 1 μM of C(=N\Nc1ccc(-c2cnco2)cc1)/c1ccncc1 [Compd B, reference compound]
68%

###

- Test system: rat liver microsomes
- EXPERIMENTAL_PROTOCOL: Hepatic microsomal stability, rat
- Format: in vitro ADME
- PROTOCOL_CONDITIONS: 1 μM, NADPH
QUANTITY_MEASURED: t1/2

A selection of reference data follows.
SMI	RESULT_VALUE
Cc1ccc(Nc2nc(-c3ccc(-c4ccccc4)cc3)cs2)nc1	> 1 h
Cc1cccc(Nc2nc(-c3cc4ccccc4o3)cs2)n1	> 1 h

Would you kindly share the measured t1/2 for COc1ccc(Nc2nc(-c3ccc(OC)c(OC)c3)cs2)nc1 ?
0.75 h

###

- EXPERIMENTAL_PROTOCOL: Hepatic microsomal stability, rat
- Type: in vitro ADME
- PROTOCOL_CONDITIONS: rat, rat liver microsomes, pH 7.4
QUANTITY_MEASURED: half-life at 1 μM

Form field: reported half-life at 1 μM of C(=N\Nc1ccc(-c2cnco2)cc1)/c1ccncc1 [Compd B, reference compound]
> 1 h

###

- EXPERIMENTAL_PROTOCOL: Single-dose IV PK at 1 mg/kg
- Format: in vivo, FVB mice
- PROTOCOL_CONDITIONS: female, FVB, mouse, plasma, iv, 1 mg/kg
QUANTITY_MEASURED: Vd (L/kg)
Number only, in L/kg; omit the unit.

Quick check: Vd of C(=N\Nc1ccc(-c2cnco2)cc1)/c1ccncc1 [Compd B, reference compound] ?
1.53

###

- Test system: mouse liver microsomes
- EXPERIMENTAL_PROTOCOL: Hepatic microsomal stability, mouse
- Assay type: in vitro ADME
- PROTOCOL_CONDITIONS: 1 μM, NADPH
QUANTITY_MEASURED: t1/2 (min)
Number in min, nothing else.

SMI	t1/2 (min)
Cc1cccc(Nc2nc(-c3cc4ccccc4o3)cs2)n1	49

Next up:
Value lookup for t1/2; key = COc1ccc(Nc2nc(-c3ccc(OC)c(OC)c3)cs2)nc1
29

###

- EXPERIMENTAL_PROTOCOL: Hepatic microsomal stability, mouse
- Format: in vitro ADME
- PROTOCOL_CONDITIONS: mouse, mouse liver microsomes, pH 7.4
QUANTITY_MEASURED: remaining at 1 h, 1 μM (%)
Just the number please, in %, no unit attached.

Consider the compound C(=N\Nc1ccc(-c2cnco2)cc1)/c1ccncc1 [Compd B, reference compound] and give its measured remaining at 1 h, 1 μM.
29

###

- Tested on: human liver microsomes
- EXPERIMENTAL_PROTOCOL: Hepatic microsomal stability, human
- Format: in vitro ADME
- PROTOCOL_CONDITIONS: 1 μM
QUANTITY_MEASURED: % remaining after a 60-min incubation (%)
Reply numerically in %, unit not repeated.

SMI	% remaining after a 60-min incubation (%)
Cc1ccc(Nc2nc(-c3cc(-c4ccccc4)no3)cs2)nc1	42
Cc1ccc(Nc2nc(-c3ccc(-c4ccccc4)cc3)cs2)nc1	105
Cc1cccc(Nc2nc(-c3cc4ccccc4o3)cs2)n1	99
COc1ccc(-c2csc(Nc3cc4ccccc4cn3)n2)cc1OC	83
Cc1ccnc(Nc2nc(-c3ccncc3)cs2)c1	30
COc1ccc(-c2csc(Nc3ccc4ccccc4n3)n2)cc1OC	113
c1ccc2cc(Nc3nc(-c4ccncc4)cs3)ncc2c1	66

Next, consider the following compound.
I have this compound here, COc1ccc(Nc2nc(-c3ccc(OC)c(OC)c3)cs2)nc1 , and I need its recorded % remaining after a 60-min incubation.
48

###

- Test system: mouse liver microsomes
- EXPERIMENTAL_PROTOCOL: Hepatic microsomal stability, mouse
- Type: in vitro ADME
- PROTOCOL_CONDITIONS: 1 μM
QUANTITY_MEASURED: % remaining after a 60-min incubation (%)
Number only, in %; omit the unit.

A selection of reference data follows.
SMI	UNIT_LABEL	RESULT_VALUE
Cc1ccc(Nc2nc(-c3ccc(-c4ccccc4)cc3)cs2)nc1	%	89
COc1ccc(Nc2nc(-c3ccc(OC)c(OC)c3)cs2)nc1	%	24
COc1ccc(-c2csc(Nc3ccc4ccccc4n3)n2)cc1OC	%	56
Cc1ccc(Nc2nc(-c3cc(-c4ccccc4)no3)cs2)nc1	%	111
COc1ccc(-c2csc(Nc3cc4ccccc4cn3)n2)cc1OC	%	58

Query: % remaining after a 60-min incubation; subject: Cc1cccc(Nc2nc(-c3cc4ccccc4o3)cs2)n1
40

Reported % remaining after a 60-min incubation, compound c1ccc2cc(Nc3nc(-c4ccncc4)cs3)ncc2c1 : ____
6

Record request: % remaining after a 60-min incubation value, item Cc1ccnc(Nc2nc(-c3ccncc3)cs2)c1
0

###

- System: MDCK-MDR1 cells
- EXPERIMENTAL_PROTOCOL: Bidirectional MDCK-MDR1 cell permeability
- Type: in vitro ADME, canine
- PROTOCOL_CONDITIONS: 10 μM, pH 7.4
# reported Papp (B−A); entries follow
Quote the value and follow it with the unit of measurement.

COMPOUND	Papp (B−A)
Cc1ccnc(Nc2nc(-c3ccncc3)cs2)c1 [IND52]	48.7 ×10⁻⁶ cm/s

Sample COc1ccc(-c2csc(Nc3ccc4ccccc4n3)n2)cc1OC [IND47] — what was its Papp (B−A)?
8.9 ×10⁻⁶ cm/s

Please report the recorded Papp (B−A) for Cc1cccc(Nc2nc(-c3cc4ccccc4o3)cs2)n1 [IND22] .
8.4 ×10⁻⁶ cm/s

Look up Papp (B−A) for this compound: c1ccc2cc(Nc3nc(-c4ccncc4)cs3)ncc2c1 [IND85]
4.44 ×10⁻⁶ cm/s

Fill blank: measured Papp (B−A) of the compound Cc1ccc(Nc2nc(-c3cc(-c4ccccc4)no3)cs2)nc1 [IND33] is ____.
8.3 ×10⁻⁶ cm/s

###

- EXPERIMENTAL_PROTOCOL: Single-dose oral gavage PK at 10 mg/kg
- Type: in vivo, FVB mice
- PROTOCOL_CONDITIONS: PO 10 mg/kg, brain, mean ± SD, n = 2
QUANTITY_MEASURED: Cmax (nM)
// return numeric value only (unit: nM, not printed)

Given the entry Cc1ccc(Nc2nc(-c3ccc(-c4ccccc4)cc3)cs2)nc1 [IND24] , report its measured Cmax.
2450

###

- Tested on: MDCK-MDR1 cells
- EXPERIMENTAL_PROTOCOL: Bidirectional MDCK-MDR1 cell permeability
- Type: in vitro ADME, canine
- PROTOCOL_CONDITIONS: MDCK-MDR1 cells
QUANTITY_MEASURED: Efflux ratio
Respond with the number and no other words.

Would you please look over these solved cases?
COMPOUND	TARGET	Efflux ratio
Cc1ccnc(Nc2nc(-c3ccncc3)cs2)c1 [IND52]	MDCK-MDR1 cells	1.3
COc1ccc(-c2csc(Nc3ccc4ccccc4n3)n2)cc1OC [IND47]	MDCK-MDR1 cells	1
c1ccc2cc(Nc3nc(-c4ccncc4)cs3)ncc2c1 [IND85]	MDCK-MDR1 cells	1.5
Cc1cccc(Nc2nc(-c3cc4ccccc4o3)cs2)n1 [IND22]	MDCK-MDR1 cells	0.9

Consider the compound shown here: Cc1ccc(Nc2nc(-c3cc(-c4ccccc4)no3)cs2)nc1 [IND33] What is its recorded Efflux ratio?
1.2
